tested on: Caenorhabditis elegans N2 (wild type); test: animals with crystals or spheres in anterior pharynx; higher = more object (crystal/sphere) accumulation; conditions: 30 µM; 48 h; genotype: wild type N2; stage: L1 start
Respond with satisfied for animals values of 40% and above, not satisfied for values below.

[[record]]
molecule = "COc1ccccc1CNC(=O)c1ccccc1I"
label = "not satisfied"

[[record]]
molecule = "Ic1cccc(-c2nnc(-c3ccccc3)o2)c1"
label = "satisfied"

[[record]]
molecule = "Clc1ccc(-c2cn3ccsc3n2)cc1"
label = "not satisfied"

[[record]]
molecule = "O=C(c1ccc(Br)cc1)N1CCN(c2ccc([N+](=O)[O-])cc2)CC1"
label = "satisfied"

[[record]]
molecule = "COc1ccc(C=Cc2ccccn2)cc1"
label = "not satisfied"

[[record]]
molecule = "c1csc(-c2cnc3ccccc3n2)c1"
label = "not satisfied"

[[record]]
molecule = "CCOc1ccc(-c2cnc3ccccc3n2)cc1"
label = "satisfied"

[[record]]
molecule = "C=CCSc1nnc(-c2ccc(Cl)cc2Cl)o1"
label = "not satisfied"

[[record]]
molecule = "c1ccc(CSc2nnc(-c3ccccc3)o2)cc1"
label = "satisfied"

[[record]]
molecule = "O=[N+]([O-])c1ccc(N2CCN(CC3CC=CCC3)CC2)cc1 (stereo not drawn)"
label = "not satisfied"

[[record]]
molecule = "Cc1ccc(-c2cnc(-c3ccncc3)o2)cc1"
label = "not satisfied"

[[record]]
molecule = "O=[N+]([O-])c1ccc(N2CCN(CC3CC4C=CC3C4)CC2)cc1 (stereo not drawn)"
label = "not satisfied"

[[record]]
molecule = "c1ccc2nc(-c3nc4ccccc4o3)ccc2c1"
label = "not satisfied"

[[record]]
molecule = "O=C(Nc1ccc(I)cc1)c1ccco1"
label = "not satisfied"

[[record]]
molecule = "CCCc1nc(-c2ccc(-c3ccc(F)cc3)cc2)no1"
label = "satisfied"

[[record]]
molecule = "O=C1CC(N2CCN(c3ccc([N+](=O)[O-])cc3)CC2)C(=O)N1c1ccccc1F (stereo not drawn)"
label = "not satisfied"

[[record]]
molecule = "O=[N+]([O-])c1ccc(CSc2ccc(Cl)cc2)cc1"
label = "satisfied"

